Every entry's value here was drawn from paper PMC5703532.

experiment: in vivo; conditions: both, C57BL/6, mouse, ip, 1 mg/kg
Peptide text beside a SMILES is read from it.
Reported property: AUC(0-t) (ng·h/mL)
Expressed in ng·h/mL, but write only the number.

Input line: Item under review: C[C@H](NC(=O)[C@@H]1CCCN1C(=O)[C@H](CCCNC(=N)N)NC(=O)[C@@H](N)[C@@H](C)O)C(=O)N[C@@H](CO)C(=O)N[C@@H](Cc1ccccc1)C(=O)N[C@@H](Cc1c[nH]c2ccccc12)C(=O)N[C@@H](CCC(=O)O)C(=O)N[C@H](C(=O)N[C@@H](CO)C(=O)O)[C@@H](C)O [M10] (H-TRPASFWETS-OH; N-terminus and C-terminus assumed) . Reported AUC(0-t)?
Output line: 72500
